All figures here come from PubChem BioAssay AID248.

Listed below: T/C values for each entry.
System: L1210 leukemia ip in BDF1 mice, survival T/C
Assay: NCI In Vivo Anticancer Drug Screen. Data for tumor model L1210 Leukemia (intraperitoneal) in B6D2F1 (BDF1) mice
Conditions: endpoint: mean survival time; dose: 400.0 mg/kg/injection; schedule: Q01DX001 (ip); vehicle: saline; higher = longer survival
Inconclusive results and toxic doses are left out.

O=C(Nc1ccc2c3c(ccc(NC(=O)c4ccccc4)c13)C=C2)c1ccccc1	100 % of control
[O-][n+]1c2ccccc2nn1-c1ccccc1	97 % of control
c1ccc(-c2ccc3ncccc3c2)cc1	105 % of control

Kindly consider the entry below.
Sample O=C(Sc1n[nH]c(=O)[nH]c1=O)c1ccccc1 — what was its T/C?
105 % of control

----------
Test system: L1210 leukemia ip in BDF1 mice, survival T/C
Assay: NCI In Vivo Anticancer Drug Screen. Data for tumor model L1210 Leukemia (intraperitoneal) in B6D2F1 (BDF1) mice
Conditions: endpoint: mean survival time; dose: 200.0 mg/kg/injection; schedule: Q01DX009 (ip); vehicle: Klucel (hydroxypropylcellulose) (HPC); higher = longer survival
Inconclusive results and toxic doses are left out.
quantity: T/C

Known results for molecules:
O=C1/C(=C/c2c(Cl)cccc2Cl)CCC/C1=C\c1c(Cl)cccc1Cl	108 % of control
O=C(Nc1cc([N+](=O)[O-])ccc1O)c1ccc(Cl)c(Cl)c1	95 % of control
c1ccc(-c2nc3ccccc3o2)cc1	97 % of control
O=C(Nc1ccccc1)N1CC12CCCCC2	98 % of control
CCOC(=O)C(C)Cl (stereo not drawn)	96 % of control
O=C(NCc1cccnc1)c1ccccc1N=Cc1cc(Cl)cc(Cl)c1O	96 % of control

Sample Nc1nc(N)nc(SCCO)n1 — what was its T/C?
110 % of control

// query: OCn1cnc2c(SC3CCCC3)ncnc21
92 % of control

----------
Listed below: T/C values for each entry.
Test system: L1210 leukemia ip in BDF1 mice, survival T/C
Experiment: NCI In Vivo Anticancer Drug Screen. Data for tumor model L1210 Leukemia (intraperitoneal) in B6D2F1 (BDF1) mice
Conditions: endpoint: mean survival time; dose: 200.0 mg/kg/injection; schedule: Q04DX003 (ip); vehicle: Klucel (hydroxypropylcellulose) (HPC); higher = longer survival
Inconclusive results and toxic doses are left out.

CCCCNC(=O)Nc1ccc(C(=O)OCC)cc1	96 % of control

Kindly consider the entry below.
Sample CCCCCCCCCC(=O)NC(=S)Nc1ccc(Br)cc1 — what was its T/C?
94 % of control

----------
Tested on: L1210 leukemia ip in BDF1 mice, survival T/C
Assay: NCI In Vivo Anticancer Drug Screen. Data for tumor model L1210 Leukemia (intraperitoneal) in B6D2F1 (BDF1) mice
Settings: endpoint: mean survival time; dose: 200.0 mg/kg/injection; schedule: Q04DX003 (ip); vehicle: acetone; higher = longer survival
Inconclusive results and toxic doses are left out.
Listed below: T/C values for each entry.

Known results for molecules:
O=C(NC1CCC(C(=O)O)CC1)OCc1ccccc1 (configuration not stated)	102 % of control
O=S(=O)(/C=C/c1ccccc1)Oc1ccc(-c2ccccc2)cc1	91 % of control
CC(C)CCCC(C)C1CCC2C3CC(=O)NC4CC(Br)CCC4(C)C3CCC12C (configuration not stated)	102 % of control
COCOCP(=O)(OC)OC	98 % of control
c1ccc2c(SCCC3CCCCC3)nnnc2c1	98 % of control
COP(=O)(OC)C1C2CC3C(C2)C31 (configuration not stated)	97 % of control

Kindly consider the entry below.
Sample CNC/C(C)=C/Br — what was its T/C?
92 % of control

----------
Tested on: L1210 leukemia ip in BDF1 mice, survival T/C
Experiment: NCI In Vivo Anticancer Drug Screen. Data for tumor model L1210 Leukemia (intraperitoneal) in B6D2F1 (BDF1) mice
Conditions: endpoint: mean survival time; dose: 400.0 mg/kg/injection; schedule: Q01DX001 (ip); vehicle: saline; higher = longer survival
Toxic doses and inconclusive results are not listed.
quantity: T/C

Known results for compounds:
Cn1ncc2[nH]c(=O)n(O)c(=O)c21	100 % of control
O=C(COC(=O)c1ccccc1O)c1ccc(-c2ccccc2)cc1	88 % of control
CCOC(=O)c1cc2c3n(c1=O)CCCC3C(c1ccccn1)OC2=O (configuration not stated)	103 % of control
C1CCC2(CC1)SCCCS2	110 % of control
COP(=O)(OC)C(=O)c1ccc([N+](=O)[O-])cc1	103 % of control
Nc1c2c([nH]c(=O)c1N=O)CCC2	104 % of control

Kindly consider the entry below.
Sample CC1(C)CCC(C)(C)c2cc(O)ccc21 — what was its T/C?
89 % of control

----------
System: L1210 leukemia ip in BDF1 mice, survival T/C
Assay: NCI In Vivo Anticancer Drug Screen. Data for tumor model L1210 Leukemia (intraperitoneal) in B6D2F1 (BDF1) mice
Details: endpoint: mean survival time; dose: 100.0 mg/kg/injection; schedule: Q01DX001 (ip); vehicle: saline; higher = longer survival
Inconclusive results and toxic doses are left out.
Listed below: T/C values for each entry.

C(=N\N=c1\[nH][nH]/c(=N/N=C/c2ccc(-c3ccccc3)cc2)c2ccccc12)/c1ccc(-c2ccccc2)cc1	98 % of control

Give recorded T/C with L1210 leukemia ip in BDF1 mice, survival T/C for the following compound: CC(C)(CCN(CC(=O)O)CC(=O)O)[N+](=O)[O-]
112 % of control

// query: O=C1NC(=S)S/C1=C\c1ccc([N+](=O)[O-])cc1
90 % of control

// query: O=NN1CCOCC1
93 % of control

// query: CCCCCCCCCCCCC/C=N/Nc1nnc(N/N=C/CCCCCCCCCCCCC)c2ccccc12
106 % of control

// query: C=CC1C(OCC)(OCC)CS1(=O)=O (stereo unspecified)
93 % of control

----------
Tested on: L1210 leukemia ip in BDF1 mice, survival T/C
Experiment: NCI In Vivo Anticancer Drug Screen. Data for tumor model L1210 Leukemia (intraperitoneal) in B6D2F1 (BDF1) mice
Conditions: endpoint: mean survival time; dose: 50.0 mg/kg/injection; schedule: Q01DX001 (ip); vehicle: carboxymethylcellulose (CMC); higher = longer survival
Inconclusive results and toxic doses are left out.
quantity: T/C

CNc1nc2c(=O)[nH]c(N)nc2n1C1OC(CO)C(O)C1O (stereo not given)	101 % of control

Kindly consider the entry below.
Sample O=c1[nH]cc(O)c(=O)[nH]1 — what was its T/C?
100 % of control

----------
Listed below: T/C values for each entry.
Tested on: L1210 leukemia ip in BDF1 mice, survival T/C
Assay: NCI In Vivo Anticancer Drug Screen. Data for tumor model L1210 Leukemia (intraperitoneal) in B6D2F1 (BDF1) mice
Conditions: endpoint: mean survival time; dose: 200.0 mg/kg/injection; schedule: Q01DX009 (ip); vehicle: Klucel (hydroxypropylcellulose) (HPC); higher = longer survival
Inconclusive results and toxic doses are left out.

Known results for compounds:
CC(=O)Oc1cc(O)c2c(c1)OC(C)(C)CC2=O	98 % of control
CCOc1cc(N)ccc1C	99 % of control

Sample COC1=CC(C)C2CC3OC(O)CC4C(C)=C(OC)C(=O)C(C2(C)C1=O)C34C (stereo not drawn) — what was its T/C?
100 % of control

----------
Listed below: T/C values for each entry.
Test system: L1210 leukemia ip in BDF1 mice, survival T/C
Experiment: NCI In Vivo Anticancer Drug Screen. Data for tumor model L1210 Leukemia (intraperitoneal) in B6D2F1 (BDF1) mice
Details: endpoint: mean survival time; dose: 12.5 mg/kg/injection; schedule: Q01DX009 (ip); vehicle: Klucel (hydroxypropylcellulose) (HPC); higher = longer survival
Toxic doses and inconclusive results are not listed.

Known results for molecules:
CCN(CC)C(=O)C1CN2CCc3cc(OC)c(OC)cc3C2CC1OC(C)=O (stereo not given)	97 % of control
O=C1OCCN1S(=O)(=O)c1ccc([N+](=O)[O-])cc1	94 % of control
O=C1c2ccccc2C(=O)N1Cc1cccc([N+](=O)[O-])c1	87 % of control
CC(=O)NC(C)(C)CC(C)(C)C	99 % of control

Kindly consider the entry below.
Sample Nc1ncc(C=O)c(N)n1 — what was its T/C?
100 % of control

----------
System: L1210 leukemia ip in BDF1 mice, survival T/C
Assay: NCI In Vivo Anticancer Drug Screen. Data for tumor model L1210 Leukemia (intraperitoneal) in B6D2F1 (BDF1) mice
Settings: endpoint: mean survival time; dose: 400.0 mg/kg/injection; schedule: Q01DX009 (ip); vehicle: saline; higher = longer survival
Toxic doses and inconclusive results are not listed.
quantity: T/C

O=Cc1ccc(OC(=O)Nc2ccccc2F)cc1	96 % of control
CC(=O)Nc1cc(C)no1	101 % of control
CCOC1NC(C)(C)CO1 (stereo unspecified)	97 % of control
CC(=O)NC(CC(=O)O)C(=O)O (stereo unspecified)	102 % of control

Sample CC(C)(CC(=O)O)c1ccccc1 — what was its T/C?
96 % of control

// query: CCOc1ccc(NC(=S)NC(=O)c2cccc3ccccc23)cc1
95 % of control
